measurementTarget: NADPH oxidase 4 (Homo sapiens)
assay: NOX4-dependent H2O2 signal modulators, primary screen, NOX inhibitor project, cell-based, HEK293-NOX4, tetracycline-induced, Amplex Red fluorescence (AID 1160)
studyConditions: 45 min, higher = more signal, called active from +8 up or from −8 down
assayEndpoint: z-score
One number for each entry.

In the examples that follow, each entry is paired with its recorded z-score.
1. COC(=O)[C@@]1(Cc2ccc(OC)cc2)[C@H]2c3cc(C(=O)N(C)C)n(CCN4CNCC4=O)c3C[C@H]2CN1C(=O)c1ccccc1 :: 2.29
2. CC(C)C(CO)N1C(=O)[C@@H]2[C@H]3C(=O)OCC=C[C@H]3OC23C=CCN(C(C)C)C(=O)[C@@H]13 (some centres undefined) :: 0.457
3. CC(C)c1ccc(NN2C(C(O)c3cc(C(F)(F)F)cc(C(F)(F)F)c3)C=CC3C(=O)N(c4ccccc4)C(=O)C32)cc1 (centres undefined) :: -5.07

[ask] Please look up its z-score: COCCOC(=O)N1C(=O)[C@@]2(c3cc(C#CC4=CCCCC4)ccc31)[C@H](C(=O)Nc1nc3ccccc3s1)[C@H]1C(=O)O[C@H](c3ccccc3)[C@H](c3ccccc3)N1[C@@H]2c1ccc(OCCO)cc1
[reply] 0.101

The reported measurements were obtained from PubChem BioAssay.
